- Assay Target: Nonstructural protein 3 (Zika virus, UniProt A0A024AXB9)
- Sequence (A0A024AXB9 whole entry): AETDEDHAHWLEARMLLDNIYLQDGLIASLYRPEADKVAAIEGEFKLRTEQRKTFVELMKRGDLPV
- Assay Explanation: Functional biochemical assay to identify treatments for viral infectious disease that targets Zika NS2B-NS3 protease. Utilizing a direct enzyme activity measurement method, reading the fluorescence intensity is used to characterize the relative potency of inhibitors as IC50.
- Design: species or system PRVABC59
pIC50: −log10 of the molar value.
Let's look at some molecules and their measured pIC50.

Example molecules with recorded pIC50:
Smiles Notation: Cc1c(C(=O)Nc2cccc(Cn3cccn3)c2)cc(C2CC2)n1C
pIC50: < 4.60

Smiles Notation: NCc1cccc(NC(=O)[C@H](NC(=O)OCc2ccccc2)C2CCCCC2)c1
pIC50: < 4.00

Smiles Notation: O=C(Nc1cc(Cl)cc(C(=O)N2CC[C@H](C(=O)O)C2)c1)OCc1ccccc1
pIC50: < 4.00

Smiles Notation: CC(C)(C)OC(=O)N1Cc2cc(NC(=O)c3cc(Cl)cc4c3cnn4[C@@H]3CCCCO3)ccc2[C@H]1CO
pIC50: < 4.60

Smiles Notation: NCc1cccc(NC(=O)[C@H](NC(=O)OCc2ccccc2)c2cccc(-c3ccc(S(N)(=O)=O)cc3)c2)c1
pIC50: 4.08

Smiles Notation: O=C1Cc2c(cccc2C(=O)Nc2ccc3c(c2)CCNCC3)N1
pIC50: 5.91

Smiles Notation: O=c1[nH]c(CSc2ccccc2Cl)nc2ccsc12
pIC50: < 4.00

Smiles Notation: CS(=O)(=O)c1ccc(NC(=O)c2cc(Cl)cc(NC(=O)OCc3ccccc3)c2)cc1
pIC50: < 4.00

In: In one line, give reported pIC50 of the entry Cc1c(C(=O)Nc2cc(C(=O)N(C)[C@H]3C[C@H](O)C3)ccn2)cc(C2CC2)n1C .
Out: < 4.60
